measurement-description: Total plasma clearance in Wistar Han rat at 0.1 mg/kg, iv by LC-MS/MS analysis
Assay type: ADME, organism-based
parameter-measured: clearance (mL/min/kg)
Write the number in mL/min/kg without appending the unit.

compound	parameter-measured	test-result
FC1CN(C2COCC2F)CCC1c1cc2nc(Nc3cnn(C4CC4(F)F)c3Cl)ncc2cc1Cl (centres undefined)	clearance	12

Query: Supply clearance value. Item: FC1CN(C2COC2)CCC1c1cc2nc(Nc3cnn(C4CC4(F)F)c3Cl)ncc2cc1Cl (centres undefined)
Response: 20

Query: Complete the entry with clearance for Cc1c(Nc2ncc3ccc(N4C(=O)OC[C@@H]4C)cc3n2)cnn1C1CCOCC1
Response: 9

Query: Supply measured clearance of Clc1cc2cnc(Nc3cnn(C4CC4)c3Cl)nc2cc1N1CCN(C2COC2)CC1 in your reply.
Response: 42

Query: Quick one: give measured clearance for Cc1c(Nc2ncc3cccc(C4CC4)c3n2)cnn1C1CCOCC1
Response: 34

Query: Please give measured clearance of the following entry: F[C@@H]1CNCC[C@H]1c1cc2nc(Nc3cnn([C@@H]4CC4(F)F)c3Cl)ncc2cc1Cl
Response: 22

Query: Input Clc1cc2cnc(Nc3cnn(C4CC4)c3Cl)nc2cc1C1CCN(C2COC2)CC1 , output reported clearance.
Response: 19

Query: Recall and state the measured clearance for FC1CN(C2CCOC2)CCC1c1cc2nc(Nc3cnn(C4CC4(F)F)c3Cl)ncc2cc1Cl (centres undefined) .
Response: 22

Query: Output measured clearance for this item: FC(F)Cn1ncc(Nc2ncc3cc(Cl)c(C4CCN(C5COC5)CC4F)cc3n2)c1Cl (centres undefined)
Response: 18
